Data credit: ChEMBL document CHEMBL1201862

System: NCI-H522
Assay: NCI tumour cell line growth inhibition, 48 h
The source made the active and inactive calls. No stated cut-off is given here; in the data, active = GI50 up to about 1.1 µM and inactive = higher.
readoutType: GI50

>>> print(df.to_string())
                                   molecule       recordedresult
0         N#CSC/C(Cl)=C/Cl.N#CSC/C(Cl)=C\Cl  > 100 µM (inactive)
1  Cc1ccccc1N1C(=O)/C(=C/c2ccc(N(CCC#N)CCC#N)cc2)N=C1c1cc([N+](=O)[O-])ccc1Cl  > 100 µM (inactive)
2  COC(=O)n1c(=O)nc2c3c(ncn21)Oc1c(c(-c2ccccc2)nn1-c1ccccc1)C3c1ccc(Cl)cc1 (stereo unspecified)    1.5 µM (inactive)
3                    O=C1NC2=NOC(=O)NC2=NO1  > 200 µM (inactive)
4  CN(C)c1ccc(/C=C2\N=C(N/N=C/c3ccccc3)NC2=O)cc1   32.2 µM (inactive)
5  CC(C)(C)OC(=O)c1ccc(NCC2=C(Br)C(=O)C=CC2=O)cc1   4.47 µM (inactive)

---

Test system: SF-268
Test: NCI tumour cell line growth inhibition, 48 h
Activity calls are given as the source filed them. No stated cut-off is given here; in the data, active = GI50 up to about 1.1 µM and inactive = higher.
// reported GI50 for each item listed
readoutType: GI50

>>> print(df.to_string())
                                   compound  assaytarget  readouttype       recordedresult
0  NC(CCC(=O)O)C(=O)N1CCN(c2nc(N3CCCC3)c3nc(Cl)c(NCc4ccccc4)nc3n2)CC1 (stereo not drawn)       SF-268         GI50   13.1 µM (inactive)
1                Oc1cc(-c2ccccc2)nc2ncccc12       SF-268         GI50   1.93 µM (inactive)
2                 Cc1c(CN)c(C)c(CN)c(C)c1CN       SF-268         GI50  > 100 µM (inactive)

---

Test system: TK-10
Assay: NCI tumour cell line growth inhibition, 48 h
Activity calls are given as the source filed them. No stated cut-off is given here; in the data, active = GI50 up to about 1.1 µM and inactive = higher.
Possible outcomes: active, inactive

compound	label
COCCOC(=O)C(C)=[N+]=[N-]	inactive
COc1nc2ccc(Cl)c(C(O)c3ccccc3)c2nc1OC (configuration not stated)	inactive
COC(=O)c1ccc(NCC2=CC(=O)c3ccccc3C2=O)cc1	inactive
O=C(O)CS	inactive
N#Cc1c(N)oc2cc3c(C#N)c(N)oc3cc12	inactive
N#CSC/C(Cl)=C/Cl.N#CSC/C(Cl)=C\Cl	inactive
Cc1cccc(/C=N/NC(=S)NC(C)(C)C)n1	inactive
S=C1NC(c2ccccc2)NC(c2ccccc2)S1 (configuration not stated)	inactive
CCOC(=O)NC(=O)c1cn(CCN2CCN(C(=O)NCCCCCCNC(=O)N3CCN(CCn4cc(C(=O)NC(=O)OCC)c(=O)n(CCN(CC)CC)c4=O)CC3)CC2)c(=O)n(CCC(CC)CC)c1=O	inactive
COc1cc(C2SCC(=O)N2c2ccc(-n3c(-c4ccccc4)nc4ccccc4c3=O)cc2)cc(OC)c1OC (configuration not stated)	inactive
C=CCC1OC(C)(C)Oc2ccc(OCOCCOC)cc21 (configuration not stated)	inactive
Oc1cc(-c2ccccc2)nc2ncccc12	active

---

Test system: NCI-H226
Assay: NCI tumour cell line growth inhibition, 48 h
The source made the active and inactive calls. No stated cut-off is given here; in the data, active = GI50 up to about 1.1 µM and inactive = higher.
Possible outcomes: YES = active, NO = inactive

molecule	label
Cc1csc(N/C=C2\C(=O)Oc3ccccc3C2=O)n1	NO
CC(=O)c1[nH]c(NCc2ccccc2)c(C(=S)Nc2ccccc2)c1N	NO
O=C(c1cccc2cc(O)ccc12)c1cn(CCN2CCOCC2)c2ccccc12	NO
Cc1ccc(O)cc1.Cc1cccc(O)c1.Cc1ccccc1O [CRESOL]	NO
CCN(CC)CCC(=O)c1ccc(C)cc1	NO
O=C(N[C@H](CO)[C@H](O)c1ccc([N+](=O)[O-])cc1)C(Cl)Cl [CHLORAMPHENICOL]	NO
COc1ccc2c(c1)CC[C@@H]1C2CC[C@]2(C)OC(=O)CCC12 (stereo partly specified)	NO
O=C(Nc1cccc2c1[nH]c1c(-c3ccccc3)nccc12)c1ccccc1[N+](=O)[O-]	NO
Nc1nc(Cl)cc(NCC2(CO)CC(=O)C2)n1	NO
CN(C)CCOc1ccc2[nH]c(C(=O)N3CC(CCl)c4ccc(N)cc43)cc2c1 (stereo unspecified)	YES
CSc1ncc2c(C#N)c3[nH]c4ccccc4n3c(=O)c2n1	NO
COCCOC(=O)C(C)=[N+]=[N-]	NO
Cc1c(C)c2c(c(N)c1C#N)C(=O)N(Nc1ccccc1)C2=O	NO
CCOC(=O)C(C(=O)OCC)=C1NC2(c3ccccc3Nc3ccccc32)C(C#N)S1 (stereo unspecified)	NO
CCOC(=O)N1c2c(ccn2C)-c2ccn(C)c2N1C(=O)OCC	NO
CC1NC(=O)c2c(-c3ccccc3)nn(-c3ccccc3)c2NC1=O (stereo unspecified)	NO
CC12CCCCC1(C)C2Sc1ccccc1 (stereo unspecified)	NO
N#CSC/C(Cl)=C/Cl.N#CSC/C(Cl)=C\Cl	NO
CN(C)c1ccc2oc(=O)c3ccccc3c2c1	NO
CCCc1cc(=O)oc2c3c(c4c(c12)OC(C)(C)CC4)O[C@H](C)[C@@H](C)[C@H]3O	NO
S=C1NN=C2C(=C3CCCC4C5CCCCC5N2C34)N1 (stereo unspecified)	YES
CO[C@H]1C[C@H](O[C@H]2CC[C@]3(C=O)[C@H]4CC[C@]5(C)[C@@H](C6=CC(=O)OC6)CC[C@]5(O)[C@@H]4CC[C@]3(O)C2)O[C@H](C)[C@H]1O [CYMARIN]	YES
CC1=C(C(=O)Nc2c(C)cccc2C)C(c2ccccc2Cl)C(C(=O)Nc2c(C)cccc2C)=C(C)N1	NO
Cc1ccccc1N1C(=O)/C(=C/c2ccc(N(CCC#N)CCC#N)cc2)N=C1c1cc([N+](=O)[O-])ccc1Cl	NO
COC(=O)C1=C(O)c2cc(OC)c(OC)c(OC)c2C(c2ccc3c(c2)OCO3)[C@@H]1C(=O)OC (stereo partly specified)	NO
O=C(O)c1ccccc1CC(Cc1ccccc1)C(=O)O (stereo unspecified)	NO
